inhibition reference
target: Delta-type opioid receptor (Rattus norvegicus); experiment: Displacement of [3H]DADLE from delta opioid receptor in rat brain at 100 nM after 60 mins by liquid scintillation counting method relative to control
result type: inhibition

* Oc1cccc([C@]23CCC[C@H]([C@@H]2O)N(C[C@@H]2C[C@@H]2c2ccccc2)CC3)c1 | < 50%
* O=[N+]([O-])c1ccc(CCN2CC[C@]3(c4cccc(O)c4)CCC[C@H]2[C@@H]3O)cc1 | < 50%
* Oc1cccc([C@]23CCC[C@H]([C@H]2O)N(CCc2ccc(C(F)(F)F)cc2)CC3)c1 | > 50%
* Oc1cccc([C@@]23CCC[C@@H]([C@@H]2O)N(CC/C=C/c2ccccc2)CC3)c1 | < 50%
* C=CCN1CC[C@@]2(c3cccc(O)c3)CCC[C@@H]1[C@H]2O | < 50%
* O=[N+]([O-])c1ccc(CCN2CC[C@@]3(c4cccc(O)c4)CCC[C@@H]2[C@H]3O)cc1 | > 50%

###

molecular target: Kappa-type opioid receptor (Homo sapiens); experiment: Agonist activity at human kappa opioid receptor expressed in CHO cell membranes assessed as stimulation of [35S]GTPgammaS binding incubated for 1 hr by liquid scintillation counting method
Sequence (P41145 whole entry): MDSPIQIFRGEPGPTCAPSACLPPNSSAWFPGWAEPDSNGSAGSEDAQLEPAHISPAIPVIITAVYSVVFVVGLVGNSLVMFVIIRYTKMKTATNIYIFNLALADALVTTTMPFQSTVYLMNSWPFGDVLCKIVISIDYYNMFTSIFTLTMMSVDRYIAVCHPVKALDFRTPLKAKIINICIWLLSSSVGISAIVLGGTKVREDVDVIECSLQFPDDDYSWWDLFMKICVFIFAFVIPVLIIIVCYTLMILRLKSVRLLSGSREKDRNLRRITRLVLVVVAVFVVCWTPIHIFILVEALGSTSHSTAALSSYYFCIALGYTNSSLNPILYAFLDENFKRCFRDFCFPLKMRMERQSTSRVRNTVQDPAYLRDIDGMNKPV
result type: EC50 (nM)

* Oc1cccc([C@]23CCC[C@H]([C@H]2O)N(CCc2ccc(C(F)(F)F)cc2)CC3)c1 | 761

###

target: UniProtKB P33535; test: Agonist activity at rat mu opioid receptor expressed in rat C6 cell membranes assessed as stimulation of [35S]GTPgammaS binding incubated for 1 hr by liquid scintillation counting method
pEC50: −log10 of the molar value.
Criterion: pEC50 meeting or surpassing 8. Met: MET. Not met: NOT MET.

* Oc1cccc([C@]23CCC[C@H]([C@H]2O)N(CCc2ccc(C(F)(F)F)cc2)CC3)c1 | NOT MET
* O=[N+]([O-])c1ccc(CCN2CC[C@@]3(c4cccc(O)c4)CCC[C@@H]2[C@H]3O)cc1 | MET
* Oc1cccc([C@]23CCC[C@H]([C@H]2O)N(CCc2ccccc2)CC3)c1 | NOT MET
* Oc1cccc([C@]23CCC[C@H]([C@@H]2O)N(C[C@@H]2C[C@@H]2c2ccccc2)CC3)c1 | NOT MET
* Oc1cccc(C23CCCC(C2O)N(C/C=C/c2ccccc2)CC3)c1 (single isomer, unassigned) | MET
* C=CCN1CC[C@@]2(c3cccc(O)c3)CCC[C@@H]1[C@H]2O | NOT MET

###

Activity reference
target: Mu-type opioid receptor (Rattus norvegicus) (UniProt P33535); experiment: Agonist activity at rat mu opioid receptor expressed in rat C6 cell membranes assessed as stimulation of [35S]GTPgammaS binding incubated for 1 hr by liquid scintillation counting method relative to DAMGO; format: functional
Sequence (P33535 whole entry): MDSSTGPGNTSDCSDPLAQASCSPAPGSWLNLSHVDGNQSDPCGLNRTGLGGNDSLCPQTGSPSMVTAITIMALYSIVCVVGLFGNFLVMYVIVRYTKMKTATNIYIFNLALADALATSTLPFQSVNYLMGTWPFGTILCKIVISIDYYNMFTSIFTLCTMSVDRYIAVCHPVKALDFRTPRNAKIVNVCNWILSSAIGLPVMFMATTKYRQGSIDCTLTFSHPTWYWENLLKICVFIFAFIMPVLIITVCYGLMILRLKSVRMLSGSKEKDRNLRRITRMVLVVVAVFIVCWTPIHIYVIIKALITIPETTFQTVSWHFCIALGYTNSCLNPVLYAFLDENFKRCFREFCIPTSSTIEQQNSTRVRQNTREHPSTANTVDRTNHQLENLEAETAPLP
result type: Activity (%)

- Oc1cccc([C@]23CCC[C@H]([C@H]2O)N(CCc2ccc(C(F)(F)F)cc2)CC3)c1: 83
- O=[N+]([O-])c1ccc(CCN2CC[C@@]3(c4cccc(O)c4)CCC[C@@H]2[C@H]3O)cc1: 104
- Oc1cccc([C@]23CCC[C@H]([C@H]2O)N(CCc2ccccc2)CC3)c1: 120
- C=CCN1CC[C@@]2(c3cccc(O)c3)CCC[C@@H]1[C@H]2O: 67
- Oc1cccc([C@]23CCC[C@H]([C@@H]2O)N(C[C@@H]2C[C@@H]2c2ccccc2)CC3)c1: 22
- Oc1cccc(C23CCCC(C2O)N(C/C=C/c2ccccc2)CC3)c1 (single isomer, unassigned): 20
